Source: paper PMC9482650

# assaySystem: T1, RHPN1, Q8TCX5
# T1 sequence (Q8TCX5 508-602, limits assumed, looked up): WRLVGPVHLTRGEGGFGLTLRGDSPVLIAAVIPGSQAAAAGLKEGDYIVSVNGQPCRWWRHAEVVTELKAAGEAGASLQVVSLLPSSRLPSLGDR
# procedureSummary: holdup assay
# Parameters: key: below the threshold = too weak to quantify, mostly under pKd 3.1 to 4
# runParameters: plain residues with an end cap or a label only (N-terminal biotin on a linker: ahx)
readoutLabel: pKd
When you answer, write just the number.

1) LSDPSVSTVV [GRIN1, Q05586;Q05586-2]	4.47
2) TVICWPGSLV [LNX2, Q8N448]	3.85
3) GYDWGPATDL [TJP3, O95049]	5.36
4) RRRKRKRTYL [HPV49-L2, P36762]	3.51

stdin: Please look up its pKd: RAVEEEESRF [PSCDBP, O60759]
stdout: 4.44
